Items are presented alongside their recorded Ki.
- studySystem: Histamine H1 receptor (Homo sapiens)
- Sequence (P35367 whole entry): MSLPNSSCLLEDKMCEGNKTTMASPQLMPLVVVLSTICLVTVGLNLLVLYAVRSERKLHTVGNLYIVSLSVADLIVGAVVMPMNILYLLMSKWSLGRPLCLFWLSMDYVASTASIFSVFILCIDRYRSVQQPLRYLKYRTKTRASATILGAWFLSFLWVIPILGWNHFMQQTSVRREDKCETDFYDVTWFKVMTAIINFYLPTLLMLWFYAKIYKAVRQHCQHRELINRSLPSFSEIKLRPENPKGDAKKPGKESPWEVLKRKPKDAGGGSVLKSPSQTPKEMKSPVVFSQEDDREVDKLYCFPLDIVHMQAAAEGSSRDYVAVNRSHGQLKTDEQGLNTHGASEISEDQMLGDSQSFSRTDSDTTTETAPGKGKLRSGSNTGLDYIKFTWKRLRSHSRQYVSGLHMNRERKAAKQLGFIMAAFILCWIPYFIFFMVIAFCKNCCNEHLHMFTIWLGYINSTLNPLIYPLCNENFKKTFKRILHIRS
- assaySummary: Displacement of [3H]-pyrilamine from human histamine H1 receptor expressed in recombinant CHOK1 cells after 1 hr
I only need the number, in nM, no unit after it.

Some molecules with recorded Ki:
O[C@@H](CNC1CCN(Cc2ccc(Cl)c(Cl)c2)CC1)COc1ccc2ncsc2c1 :: 316
O=C(NC[C@@H](O)CN1CCC(Oc2ccc(Cl)c(Cl)c2)CC1)c1cnnc2ccccc12 :: 12.6
O=C(NC[C@@H](O)CN1CCC(Oc2ccc(Cl)c(Cl)c2)CC1)c1cc(=O)[nH]c2ccccc12 :: 3.98

Turning now to a further record.
Fill in the blank: the reported Ki of `COc1cc(C(=O)NC[C@@H](O)CN2CCC(Oc3ccc(Cl)c(Cl)c3)CC2)ccc1N` is ____.
63.1
